Origin of measurements: patent US20240245658A1

test.target: human 5-HT7 receptor (Homo sapiens, UniProt P34969)
Sequence (P34969 whole entry): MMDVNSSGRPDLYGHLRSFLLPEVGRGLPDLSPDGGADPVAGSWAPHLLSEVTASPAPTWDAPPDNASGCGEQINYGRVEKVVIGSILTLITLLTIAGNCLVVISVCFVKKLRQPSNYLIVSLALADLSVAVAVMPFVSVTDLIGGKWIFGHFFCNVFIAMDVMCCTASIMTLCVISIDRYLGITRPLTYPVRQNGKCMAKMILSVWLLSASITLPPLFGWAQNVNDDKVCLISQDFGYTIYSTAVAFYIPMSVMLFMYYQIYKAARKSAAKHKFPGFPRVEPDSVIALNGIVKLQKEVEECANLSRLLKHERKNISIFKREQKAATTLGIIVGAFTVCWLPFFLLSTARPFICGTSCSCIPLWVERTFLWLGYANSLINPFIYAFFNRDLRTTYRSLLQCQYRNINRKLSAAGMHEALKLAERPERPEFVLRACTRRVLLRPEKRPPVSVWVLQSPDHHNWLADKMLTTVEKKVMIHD
test.description: 5HT7 Antagonism Assay (Euroscreen FAST-0499C), cAMP HTRF
measurement.conditions: CHO-K1 cells expressing human 5-HT7, reference agonist at EC80, cAMP HTRF
quantity.name: IC50

Please review the following examples before continuing.
{"columns": ["compound", "endpoint.value"],
 "data": [
  ["N#Cc1ccc2c(c1)C(CN)Cc1ncccc1O2 (single isomer, unassigned) [Compound 160]", "1 to 10 µM"],
  ["NCC1Cc2ccc(Cl)cc2Oc2cccnc21 (single isomer, unassigned) [Compound 124]", "≥ 10 µM"],
  ["CNCC1Cc2ccccc2Oc2ccc(C)nc21 (single isomer, unassigned)", "1 to 10 µM"],
  ["NCC1Cc2ccc(F)cc2Oc2ccccc21 (single isomer, unassigned)", "≥ 10 µM"],
  ["NCC1Cc2cc(F)ccc2Oc2ccccc21 (single isomer, unassigned)", "≥ 10 µM"]
]}

Please look up its IC50: NCC1Cc2ccncc2Oc2ccccc21 (single isomer, unassigned) [Compound 22]
≥ 10 µM

One more compound: NCC1Cc2ncccc2Oc2ccc(F)cc21 (single isomer, unassigned) [Compound 164]
≥ 10 µM

Do the same for CNCC1Cc2c(F)cccc2Oc2ccccc21 (single isomer, unassigned) [Compound 82] please
1 to 10 µM

Entry to check: NCC1Cc2cccnc2Oc2ccccc21 (single isomer, unassigned) [Compound 17]
≥ 10 µM

What about this compound? CNC[C@H]1c2ncccc2Oc2ccccc2[C@@H]1C (stereo in doubt)
≥ 10 µM

Ok, now NCC1Cc2ncccc2Oc2ccc(Cl)cc21 (single isomer, unassigned)
≥ 10 µM

Also check CNCC1Cc2ccccc2Oc2ccc(F)cc21 (single isomer, unassigned) [Compound 95]
1 to 10 µM

Input CNCC1Oc2ccccc2Oc2cccnc21 (single isomer, unassigned) [Compound 58]
1 to 10 µM

Entry CNCC1Oc2ccc(F)cc2Oc2ccccc21 (single isomer, unassigned) [Compound 44] please
< 1 µM

Repeat for the following compound: NCC1Cc2ccccc2Oc2cccc(F)c21 (single isomer, unassigned) [Compound 104]
≥ 10 µM

Try this compound next: CNCC1Cc2ccccc2Oc2cccc(F)c21 (single isomer, unassigned) [Compound 107]
≥ 10 µM

Similarly, CNCC1Cc2c(F)cccc2Oc2cccnc21 (single isomer, unassigned) ?
≥ 10 µM

Now this one: CNCC1Cc2c(F)cccc2Oc2ccccc21 (single isomer, unassigned) [Compound 83]
1 to 10 µM

Input NCC1Cc2ncc(F)cc2Oc2ccccc21 (single isomer, unassigned) [Compound 39]
≥ 10 µM

Try CNC[C@H]1Cc2ncc(F)cc2Oc2ccccc21 (single isomer, unassigned) next.
1 to 10 µM

Can you handle CNCC1Cc2ccc(Cl)cc2Oc2cccnc21 (single isomer, unassigned) [Compound 126] next?
≥ 10 µM

And CNCC1Oc2ccccc2Oc2cnccc21 (single isomer, unassigned) [Compound 52] ?
≥ 10 µM

###

test.target: human TAAR1 receptors (Homo sapiens)
Sequence (Q96RJ0 whole entry): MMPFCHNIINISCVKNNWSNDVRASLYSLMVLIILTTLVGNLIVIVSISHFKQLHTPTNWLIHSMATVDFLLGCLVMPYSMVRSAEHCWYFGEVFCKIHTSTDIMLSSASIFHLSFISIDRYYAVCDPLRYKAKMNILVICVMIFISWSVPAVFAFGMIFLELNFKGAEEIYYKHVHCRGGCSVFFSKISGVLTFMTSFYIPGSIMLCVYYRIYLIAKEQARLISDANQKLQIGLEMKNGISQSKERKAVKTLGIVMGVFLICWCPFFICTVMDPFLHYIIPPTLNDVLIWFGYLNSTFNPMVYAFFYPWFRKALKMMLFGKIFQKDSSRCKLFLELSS
test.description: TAAR1 Agonism Assay: cAMP HTRF assay for Gs coupled receptor TAAR1 (Euroscreen FAST-0987C)
measurement.conditions: CHO-K1 cells expressing human TAAR1, cAMP HTRF
quantity.name: EC50

Completed entries (count: 3):
{"columns": ["molecule", "endpoint.value"],
 "data": [
  ["NCC1Cc2ncccc2Oc2cccc(F)c21 (single isomer, unassigned) [Compound 156]", "< 1000 nM"],
  ["CNCC1Cc2cccnc2Oc2ccccc21 (single isomer, unassigned) [Compound 19]", "1000 to 10000 nM"],
  ["CNCC1Cc2c(F)cccc2Oc2cccnc21 (single isomer, unassigned) [Compound 138]", "< 1000 nM"]
]}

Then this molecule:
Find the recorded EC50 belonging to NCC1Cc2ncccc2Oc2cc(Cl)ccc21 (single isomer, unassigned) [Compound 172] and report it.
< 1000 nM
